Data origin: PubChem BioAssay (NCATS)

Test: Quantitative High-Throughput drug screen in 47 multiple myeloma cell lines against the NCATS MIPE library collection: EJM_DSMZ cell viability assay (AID 1918926; also: nearly all actives have a fitted effect of over 30% in size)
Settings: EJM myeloma cell viability, CellTiter-Glo ATP, 48 h; series mostly up to 45.8 µM
Results filed as inconclusive are left out. Activity calls are given as the source filed them. Calls follow the shape of the dose curve; as a rule, active = well fitted cell-killing curve with a large enough effect; inconclusive = small, poorly fitted or top-dose-only effect, or effect the other way; inactive = no such curve, though single readings can be large or run the other way.
Field 'call' accepts active, inactive

Example cases with answers are listed next.
> print(dat)
                           substance.smiles   label
1  CC[C@H](C=C[C@@H](C)[C@H]1CC[C@H]2[C@@H]3CC=C4C[C@@H](O)CC[C@]4(C)[C@@H]3CC[C@]12C)C(C)C  active
2  O=S(=O)(O)c1ccc2cc(N=Nc3cc(S(=O)(=O)O)c4cccnc4c3O)ccc2c1  active

Ask | Test call for this compound, please: CCC[C@@H](NC(=O)[C@@H]1[C@H]2CCC[C@@H]2CN1C(=O)[C@@H](NC(=O)[C@@H](NC(=O)c1cnccn1)C1CCCCC1)C(C)(C)C)C(=O)C(=O)NC1CC1
Reply | inactive

* * *

Assay: Quantitative High-Throughput drug screen in 47 multiple myeloma cell lines against the NCATS MIPE library collection: FR4_PLB cell viability assay (AID 1918924; also: nearly all actives have a fitted effect of over 35% in size)
Settings: FR4_PLB myeloma cells viability, CellTiter-Glo ATP, 48 h; series mostly up to 45.8 µM
Results filed as inconclusive are left out. Calls of active or inactive are those of the source. Calls follow the shape of the dose curve; as a rule, active = well fitted cell-killing curve with a large enough effect; inconclusive = small, poorly fitted or top-dose-only effect, or effect the other way; inactive = no such curve, though single readings can be large or run the other way.
Field 'call' accepts Y = active, N = inactive

Example cases with answers are listed next.
molecule	label
COc1ccc(-c2cc3nccn3c(Nc3ncccc3C(N)=O)n2)cc1OC	Y
O=c1[nH]c(=O)n([C@H]2C[C@@H](O)[C@@H](CO)O2)cc1C(F)(F)F	N
CC[C@H](NC(=O)[C@H](C)NC)C(=O)N1C[C@@H](O)C[C@H]1Cc1c(-c2[nH]c3cc(F)ccc3c2C[C@H]2C[C@H](O)CN2C(=O)[C@H](CC)NC(=O)[C@H](C)NC)[nH]c2cc(F)ccc12	N
CCC(c1ccc(O)cc1)C(CC)c1ccc(O)cc1 (configuration not stated)	Y
COc1ccc2nc3cc(Cl)ccc3c(Nc3cc(CN4CCCC4)c(O)c(CN4CCCC4)c3)c2n1	Y

Ask | Test call for this molecule, please: O=C(Nc1ccc(OC(F)(F)F)cc1)c1sccc1NCc1ccnc2ccccc12
Reply | Y

Ask | Test call for this molecule, please: C=C1c2cccc(O)c2C(O)=C2C(=O)[C@@]3(O)C(O)=C(C(N)=O)C(=O)[C@@H](N(C)C)[C@@H]3[C@@H](O)[C@H]12
Reply | Y

* * *

Test: Quantitative High-Throughput drug screen in 47 multiple myeloma cell lines against the NCATS MIPE library collection: EJM_DSMZ cell viability assay (AID 1918926)
Settings: EJM myeloma cell viability, CellTiter-Glo ATP, 48 h; series mostly up to 45.8 µM
Inconclusive results are not listed. The source made the active and inactive calls. Calls come from the whole dose curve; as a rule, active = well fitted cell-killing curve with a large enough effect; inconclusive = small, poorly fitted or top-dose-only effect, or effect the other way; inactive = no such curve, though single readings can be large or run the other way.
Field 'call' accepts active, inactive

Ask | Test call for this compound, please: CN(C)CCOc1ccc(-c2nc(-c3ccc4c(c3)CCC4=NO)c(-c3ccncc3)[nH]2)cc1
Reply | active

* * *

Assay: Quantitative High-Throughput drug screen in 47 multiple myeloma cell lines against the NCATS MIPE library collection: MM1R_ATCC cell viability assay (AID 1918981); also: nearly all actives have a fitted effect of over 35% in size
Conditions: MM1R multiple myeloma cells, CellTiter-Glo viability, 48 h; series mostly up to 45.8 µM
Results filed as inconclusive are left out. The source made the active and inactive calls. The call rests on the fitted dose curve; in most records, active means well fitted cell-killing curve with a large enough effect; inconclusive means small, poorly fitted or top-dose-only effect, or effect the other way; inactive means no such curve, though single readings can be large or run the other way.
Field 'call' accepts label 1 = active, label 0 = inactive

Example cases with answers are listed next.
compound	label
CON(C)C(=O)N1N=C(c2cc(F)ccc2F)S[C@]1(CCCN)c1ccccc1	label 0
NS(=O)(=O)c1cc(Cl)c(Cl)c(S(N)(=O)=O)c1	label 0
CCN1CCC(n2cc(CNc3cc(Cl)c4ncc(C#N)c(Nc5ccc(F)c(Cl)c5)c4c3)nn2)CC1	label 1

Ask | Test call for this compound, please: COc1cc(CNC(=O)CCCCC=CC(C)C)ccc1O
Reply | label 0

Ask | Test call for this compound, please: COc1c(C)c2c(c(O)c1CC=C(C)CCC(=O)OCCN1CCOCC1)C(=O)OC2
Reply | label 1

Ask | Test call for this compound, please: NCC1CCC(C(=O)O)CC1 (stereo not drawn)
Reply | label 0

Ask | Test call for this compound, please: C[C@@H]1CC=CC=CC=CC=C[C@@H](O[C@@H]2O[C@H](C)[C@@H](O)[C@H](N)[C@H]2O)C[C@@H]2O[C@](O)(C[C@@H](O)C[C@@H]3O[C@@H]3C=CC(=O)O1)C[C@H](O)[C@@H]2C(=O)O
Reply | label 1

Ask | Test call for this compound, please: CN1[C@H]2CC[C@H]1CC(OC(=O)c1c[nH]c3ccccc13)C2 (stereo partly drawn)
Reply | label 0

* * *

Test: qHTS of pediatric cancer cell lines to identify multiple opportunities for drug repurposing: Primary screen for OHS-50 cells (AID 1347103); also: nearly all actives have a fitted effect of over 40% in size
Conditions: OHS-50 osteosarcoma viability, CellTiter-Glo luminescence, 48 h; series mostly up to 57.3 µM
Results filed as inconclusive are left out. Active and inactive are the calls of the source. Calls come from the whole dose curve; as a rule, active = well fitted cell-killing curve with a large enough effect; inconclusive = small, poorly fitted or top-dose-only effect; inactive = no such curve, though single readings can be large or run the other way.
Field 'call' accepts active, inactive

Example cases with answers are listed next.
> print(dat)
                                   molecule     label
1            Fc1ccc(CNc2ncnc3ccc(F)cc23)cc1    active
2  CC1(C)CC(=O)c2c(C(F)(F)F)nn(-c3ccc(C(N)=O)c(NC4CCC(O)CC4)c3)c2C1 (stereo unspecified)    active
3  Cc1ccc(NC(=O)c2cccc(N(C)C)c2)cc1NC(=O)c1ccc(O)cc1  inactive
4  Cc1cn([C@@H]2C[C@@H](O)[C@H](CO)O2)c(=O)[nH]c1=O  inactive
5  O=C(CC12CC3CC(CC(C3)C1)C2)Nc1cccc2nc(NCCNCCO)ccc12    active

Consider the record given below.
Ask | Test call for this molecule, please: C[C@@]1(c2cc(-c3cncnc3)c(F)cc2F)CCSC(N)=N1
Reply | active

* * *

Molecular target: Calcium and integrin-binding protein 1 (Homo sapiens) (UniProt Q99828)
Sequence (Q99828 whole entry, looked up): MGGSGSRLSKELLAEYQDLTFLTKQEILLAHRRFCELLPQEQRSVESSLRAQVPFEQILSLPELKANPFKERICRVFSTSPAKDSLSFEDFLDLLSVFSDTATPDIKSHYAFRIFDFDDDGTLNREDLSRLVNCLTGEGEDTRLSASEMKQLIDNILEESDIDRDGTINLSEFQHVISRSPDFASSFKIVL
Assay: Primary qHTS for Identification of Calcium Integrin Binding Protein 1 (CIB1) Competitor (AID 1508620)
Settings: CIB1-GST / FITC-alphaIIb peptide fluorescence polarization; series mostly up to 57.7 µM
Inconclusive results are not listed. Active and inactive are the calls of the source. Calls come from the whole dose curve; as a rule, active = well fitted inhibition curve with a large enough effect; inconclusive = small, poorly fitted or top-dose-only effect; inactive = flat fitted curve, though single readings scatter.
Field 'call' accepts YES = active, NO = inactive

> print(dat)
                                   molecule  label
1  CCOC(=O)[C@@H](N)CCC(=O)N[C@@H](CSCc1ccccc1)C(=O)N[C@@H](C(=O)OCC)c1ccccc1     NO
2  Cc1cccc2c1CC[C@H](CN1CCC(c3c(Cl)cccc3Cl)CC1)C[C@@H]2O     NO
3  CN1c2ccccc2C(=O)N2CCc3c([nH]c4ccccc34)C21 (configuration not stated)     NO
4   O=c1cc(-c2ccc(O)c(O)c2)oc2cc(O)cc(O)c12     NO
5  CNC(=O)c1cc(Oc2ccc(NC(=O)Nc3ccc(Cl)c(C(F)(F)F)c3)c(F)c2)ccn1     NO
6           CN(C)CCN(Cc1ccc(Cl)cc1)c1ccccn1     NO

Ask | Test call for this molecule, please: CCC[C@H](N[C@@H](C)C(=O)N1[C@@H]2CCCC[C@H]2C[C@H]1C(=O)O)C(=O)OCC
Reply | NO

Ask | Test call for this molecule, please: CO[C@@H]1C(N(C)C(=O)c2ccccc2)C[C@H]2O[C@]1(C)n1c3ccccc3c3c4c(c5c6ccccc6n2c5c31)C(=O)NC4=O (some centres not stated)
Reply | YES

Ask | Test call for this molecule, please: CN(C)CC[C@H](CSc1ccccc1)Nc1ccc(S(=O)(=O)NC(=O)c2ccc(N3CCN(Cc4ccccc4-c4ccc(Cl)cc4)CC3)cc2)cc1[N+](=O)[O-]
Reply | NO

Ask | Test call for this molecule, please: COc1nccc(-c2c(-c3ccc(F)cc3)ncn2C2CCC(O)CC2)n1 (configuration not stated)
Reply | NO

Ask | Test call for this molecule, please: Cc1ccc(NC(=O)Nc2cc(C(F)(F)F)ccc2F)cc1Nc1ccc2c(c1)NC(=O)C2=Cc1ccc[nH]1
Reply | NO

Ask | Test call for this molecule, please: COc1ccc(-c2nc3ccc(C4=NNC(=O)CC4C)cc3[nH]2)cc1 (configuration not stated)
Reply | NO

Ask | Test call for this molecule, please: CN1CCc2c(n(Cc3ccc(C(=O)NO)cc3)c3ccccc23)C1
Reply | NO

Ask | Test call for this molecule, please: N#Cc1ccc(Oc2ccc3c(c2)COB3O)cc1
Reply | NO

Ask | Test call for this molecule, please: Clc1ccc(C2(c3ccc(-c4cn[nH]c4)cc3)CCNCC2)cc1
Reply | NO

Ask | Test call for this molecule, please: CN1CCN2c3ncccc3Cc3ccccc3C2C1 (configuration not stated)
Reply | NO

Ask | Test call for this molecule, please: COc1cc([C@@H]2c3cc4c(cc3[C@@H](O[C@@H]3O[C@@H]5CO[C@@H](C)O[C@@H]5[C@H](O)[C@@H]3O)[C@H]3COC(=O)[C@H]23)OCO4)cc(OC)c1O
Reply | NO

Ask | Test call for this molecule, please: CC(C)N(CCCNC(=O)Nc1ccc(C(C)(C)C)cc1)C[C@H]1O[C@@H](n2cc(Br)c3c(N)ncnc32)[C@H](O)[C@H]1O
Reply | NO
